biological target: BH4 domain of Bcl-2 (Homo sapiens)
Sequence (P10415 6-30 limits assumed): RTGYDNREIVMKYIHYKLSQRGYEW
property: Kd (µM)
Entry rule: numbers only, all in µM.

(Q) Would you kindly share the measured Kd for O=C(/C=C/c1ccc(Cl)c(Cl)c1)NN1CCOC1=O [compound 96505] ?
(A) 24
